From: a melting point compilation (Tetko et al.)

Documented melting point across a set of molecules

CC1(CCc2ccc(O)cc2)NC(=O)NC1=O (stereo unspecified) : 192 to 194 °C

Entry under test: COc1ccc(COc2cc(Br)ccc2C(F)(F)F)cc1 . Its melting point was 32 to 34 °C

Data point: Cc1cc(NC(=O)CSCC(N)C(=O)O)no1 (stereo unspecified) ; melting point = 204 to 206 °C

// melting point lookup, molecule = CCNS(=O)(=O)c1ccc(I)cc1 , result: 112 to 114 °C

----------
Examples of compounds with documented melting point follow.

Lab book: melting point of O=C(O)C(=O)c1ccc2c(c1)CCCC2 noted as 70 to 72 °C

Short answer for CC(C)(C)OC(=O)N1C(=O)N(CC#N)C(C)(C)C1=O : melting point was 149 to 151 °C

For O=C(O)CS(=O)(=O)CCCc1ccccc1 the compound record lists melting point as 97 to 99 °C

Kindly note the recorded melting point for N#Cc1ccc(-c2nc3ccccc3[nH]2)cc1 , which is 326 to 328 °C

melting point measured on Nc1cc(-c2cccc(C(F)(F)F)c2)no1 = 89 to 91 °C

GET /value?item= CC1Cc2ccccc2N1C(=O)CO (centres undefined) &field=melting point returns 75 to 77 °C

Entry COc1cc(N)c(C(=O)O)c(OC)c1 ; melting point = 106 to 108 °C

The compound identified as O=C(O)c1cccnc1OCCO registered its melting point at 196 to 198 °C
